Assay: small-molecule microarray binders of probe aCHRDL2, primary screen, biochemical, biotinylated probe, 635/667 nm fluorescence (AID 1100)
Details: higher = more signal
Measurement name: composite z-score

Consider the reported composite z-score for these molecules:
INSERT INTO assay_data (molecule, measurement_name, experimental_result) VALUES
  ('COC(=O)[C@@]1(Cc2ccc(OC)cc2)[C@H]2c3cc(C(=O)N4CCCC4)n(CCc4c[nH]c5cc(F)ccc45)c3C[C@H]2CN1C(=O)c1ccccc1', 'composite z-score', 1.19),
  ('COCCOC(=O)N1C(=O)[C@@]2(c3cc(C#CCNC(N)=O)ccc31)[C@H](c1ccc(O)cc1)N1[C@H](c3ccccc3)[C@H](c3ccccc3)OC(=O)[C@H]1[C@@H]2C(=O)Nc1nc2ccccc2s1', 'composite z-score', 0.476),
  ('COc1ccc([Si](C)(C)[C@H]2[C@H](CCn3cc([C@H](O)c4ccccc4)nn3)O[C@@]3(C(=O)N(Cc4cccc(N5CCC5=O)c4)c4ccccc43)[C@@H]2C)cc1', 'composite z-score', -0.206),
  ('NC(=O)NCC#Cc1ccc2c(c1)[C@]1(C(=O)N2)[C@H](C(=O)N2CCCCCCC2)[C@H]2C(=O)O[C@H](c3ccccc3)[C@H](c3ccccc3)N2[C@@H]1c1ccc(OCCO)cc1', 'composite z-score', 1.36),
  ('C=CC[C@@]1(C(=O)NCC(O)CO)N=C(c2ccc(OCCCO)cc2)O[C@@H]1c1ccccc1N=[N+]=[N-] (stereo not given in full)', 'composite z-score', 1.12),
  ('COC(=O)[C@@]1(Cc2ccc(F)cc2)[C@H]2c3cc(C(=O)N(C)C)n(CCc4ccccn4)c3C[C@H]2CN1C(=O)c1ccccc1', 'composite z-score', 0.312),
  ('CCOC(=O)C1=C[C@@H](C(C)C)N(S(=O)(=O)c2ccc(C)cc2)[C@H]1c1ccc(C(C)C)cc1', 'composite z-score', -0.229),
  ('CO[C@H]1O[C@H](CO)[C@@H](OC(=O)Nc2ccc3c(c2)OCO3)[C@H](OC(=O)Nc2ccccc2)[C@H]1OC(=O)Nc1ccccc1', 'composite z-score', 0.398);

Record composite z-score for all entries; do not skip any.
1. O=C1C2C=CC(C(O)c3ccc(-c4ccccc4)s3)N(n3cnnc3)C2C(=O)N1Cc1ccccc1 (stereo not given)
2. C=CC[C@@]1(C(=O)O)N=C(c2ccc(OCCCO)cc2)O[C@@H]1c1ccccc1N=[N+]=[N-]
3. O=C1O[C@@H](c2ccccc2)[C@@H](c2ccccc2)N2[C@@H](c3ccc(O)cc3)[C@]3(C(=O)Nc4ccc(C#CC5(O)CCCCCC5)cc43)[C@@H](C(=O)N3CCCCCCC3)[C@H]12
4. C=C(COC)C(=O)CC[C@H](OC(C)=O)c1cccc(OCCO)c1

-- reply
0.746
1.2
1.26
-0.0122

Could I get composite z-score for every one of these entries?
1. C=CC(COC(C)=O)NS(=O)(=O)c1ccc(Br)cc1 (stereo not given)
2. CCOC(=O)C[C@H]1[C@H](OC(=O)c2ccccc2-c2ccccc2)[C@@H](NC(=O)c2ccc3ccccc3c2)c2cc(OCCCO)ccc2N1C(=O)c1ccc2ccccc2n1
3. COC(=O)c1ccc(C(O)C2C=CC3C(=O)N(C)C(=O)C3N2NC(=O)OC(C)(C)C)o1 (stereo not given)

-- reply
[-0.501, -0.154, 0.266]

----------
Could you please report measured z-score for the items listed next?
Assay: A549 lung cancer cell viability effects, profiling panel, resazurin fluorescence, 24 h, PK04 Diversity Set (AID 1171); further: test concentration not given here
Conditions: higher = more signal, called active from +8 up or from −8 down
Answers are plain numbers.

These recorded examples may help you get a feel for the data.
INSERT INTO assay_data (molecule, measurement_name, experimental_result) VALUES
  ('COc1ccc(C#Cc2ccc3c(c2)[C@]2(C(=O)N3)[C@H](C(=O)NC[C@H](O)c3ccccc3)[C@H]3C(=O)O[C@H](c4ccccc4)[C@H](c4ccccc4)N3[C@@H]2c2ccc(OCCO)cc2)cc1', 'z-score', -0.171),
  ('CCCC[C@H]1OB(O)C[C@H]2C1=C(C)C[C@H]1C(=O)N(Cc3ccccc3)C(=O)[C@H]12', 'z-score', 0.174),
  ('C=CCOC(=O)[C@H]1[C@@H]2C(=O)O[C@@H](c3ccccc3)[C@@H](c3ccccc3)N2[C@@H](c2ccc(OCCOC(=O)[C@@H]3C[C@@H]4C(=O)NCC(=O)N4[C@@H]3c3ccc(O)cc3)cc2)[C@]12C(=O)Nc1ccccc12', 'z-score', 0.677),
  ('CC(C)c1ccc(NN2C(C(O)c3cccc(O)c3)C=CC3C(=O)N(c4ccccc4)C(=O)C32)cc1 (centres undefined)', 'z-score', 0.403),
  ('CC(C)CNC(=O)[C@@]1(c2ccc([N+](=O)[O-])cc2)CC(=O)N(CC23CC4CC(CC(C4)C2)C3)[C@@H]1c1ccc(CO)cc1', 'z-score', -2.47);

Kindly give each listed record's z-score.
1. COc1ccc(CCNC(=O)[C@@]2(c3ccc([N+](=O)[O-])cc3)CC(=O)N(CC34CC5CC(CC(C5)C3)C4)[C@@H]2c2ccc(CO)cc2)cc1
2. CN1C(=O)C2C=CC(C(O)c3ccccn3)N(Nc3ccccc3)C2C1=O (centres undefined)
3. CCC[C@@H]1C=C(C(=O)O)[C@H](c2ccc(C)cc2)N1S(=O)(=O)c1ccc(C)cc1
4. CCCCCCCCCCC(O)C1C=CC2C(=O)N(Cc3ccccc3)C(=O)C2N1n1cnnc1 (centres undefined)
5. O=C1O[C@@H](c2ccccc2)[C@@H](c2ccccc2)N2[C@@H](c3ccc(O)cc3)[C@]3(C(=O)Nc4ccc(C#CC5(O)CCCCCC5)cc43)[C@@H](C(=O)N3CCCCCCC3)[C@H]12
6. CN(C)CCCCNC(=O)[C@H]1C[C@H]2C(=O)N[C@@H](Cc3ccccc3)C(=O)N2[C@H]1c1ccc(O)cc1

-- reply
[-2.29, -0.205, -0.112, -0.929, -0.314, -0.1]

Respectfully, I request z-score for each entry included below.
1. COCC(=C=CC[C@@H](O)c1ccc(CO)o1)CCO
2. C=CCNC(=O)[C@@H]1[C@H]2C(=O)O[C@H](c3ccccc3)[C@H](c3ccccc3)N2[C@H](c2ccc(O)cc2)[C@@]12C(=O)N(C(=O)OCCOC)c1ccccc12
3. C=C(CCCC)/C(=C/C[C@H](OC(C)=O)c1ccc(CO)o1)c1cnc2ccccc2c1

-- reply
1: 0.559; 2: 0.425; 3: 0.398

----------
System: Wnt5a (protein binding on small-molecule microarray)
Test: Wnt5a binders on small-molecule microarray, primary screen, biophysical, 635/667 nm fluorescence (AID 1142);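 further: fluorescence read at 667 nm with signal to noise per printed feature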
Details: 635 nm fluorescence, higher = more signal
Record form. Attribute: composite z-score. Fill in for each entry.
Numbers only.

INSERT INTO assay_data (compound, experimental_result) VALUES
  ('C=CC[C@@]1(C(=O)NCC(O)CO)N=C(c2ccc(OCCCO)cc2)O[C@@H]1c1ccccc1N=[N+]=[N-] (some centres undefined)', 0.147),
  ('COc1cc2c(cc1O)C(C)N(Cc1cccc(OC(F)(F)F)c1)CC2 (centres undefined)', 0.475),
  ('CC(C)CNC(=O)[C@@H]1c2ccccc2C(=O)N(Cc2cc(C(F)(F)F)cc(C(F)(F)F)c2)[C@H]1c1ccc(CO)cc1', -0.0674),
  ('C=CC[C@@]1(C(=O)N2CCOCC2)N=C(c2ccc(OCCCO)cc2)O[C@@H]1c1ccccc1N=[N+]=[N-]', 0.331),
  ('C=C(CCCC)C(=O)CC[C@H](OC(=O)c1cccnc1)c1cccc(OCCO)c1', 0.54);

Hi team, please reply with composite z-score for each item in this list.
1. COC(=O)[C@@]1(Cc2ccc(OC)cc2)[C@H]2c3cc(C(=O)N4CCCC4)n(Cc4ccccn4)c3C[C@H]2CN1C(=O)c1ccccc1
2. COCCOC(=O)N1C(=O)[C@@]2(c3cc(C#CC4=CCCCC4)ccc31)[C@H](C(=O)N1CCc3cc(OC)c(OC)cc3C1)[C@H]1C(=O)O[C@H](c3ccccc3)[C@H](c3ccccc3)N1[C@@H]2c1ccccc1OCCO
3. O=C(CCN1CCOCC1)c1cccc(O)c1
4. O=C(O)[C@H]1C[C@H]2C(=O)NCC(=O)N2[C@H]1c1ccc(O)cc1

-- reply
1: 0.782; 2: 0.192; 3: 0.361; 4: -0.0071

----------
Assay: binders of probe aFGF2 on microarray, primary screen, stem cell growth factor project, biochemical, small-molecule microarray, fluorescence 635/667 (AID 1067);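 further: measures binding of biotinylated aFGF2 protein to printed compounds on slides; z-score merges feature fluorescence and signal-to-noise across triplicate slides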
Conditions: higher = more signal
composite z-score of -0.09 or higher: met. Under -0.09: not met.

INSERT INTO measurements (compound, qualitative_label) VALUES
  ('[N-]=[N+]=Nc1ccccc1C[C@]1(C(=O)NCCN2CCOCC2)N=C(c2ccc(OCCCO)cc2)O[C@H]1c1ccccc1', 'met');

-- ask Check if composite z-score >= -0.09 (inclusive). Item: "COCCOC(=O)N1C(=O)[C@@]2(c3cc(C#CCCO)ccc31)[C@H](C(=O)NC[C@H](O)c1ccccc1)[C@H]1C(=O)O[C@H](c3ccccc3)[C@H](c3ccccc3)N1[C@@H]2c1ccc(O)cc1"
-- reply met

-- ask Is composite z-score for CCCCCCCCCCC(O)C1C=CC2C(=O)N(Cc3ccccc3)C(=O)C2N1n1cnnc1 (centres undefined) at or above -0.09?
-- reply met
